Target: HIV-1 HXBc2 gp120 (HIV-1 (HXBc2), UniProt P04578)
Experiment: SPR
Measured attribute: koff (s⁻¹)
Note: unit s⁻¹ is implicit; provide only the numeric part.

| Binder | koff [s⁻¹] |
| --- | --- |
| Fab m18 F99Y (HCDR3) (Fab, V domains shown) VH: VQLLESGPGVVKPSETLSLTCTVSGASVNNYYWTWVRQPPGKGLEWIGNVYDSGDTNYNPSLSSRLSLSMDTSKNQFSLRLSSVTAADTATYYCARYHRHYIRGPLSFDYWGRGTLVTVSS VL: LQMTQSPSFLSASVGDRVSITCRASQDIQKFLAWYQLTPGDAPKLLMYSASTLQSGVPSRFSGSGSGTEFTLTISGLQPEDFATYYCQHLKRYPYTFGQGTKLEIS | 9.2e-05 |
| Fab m18 (wild type) (Fab, V domains shown) VH: VQLLESGPGVVKPSETLSLTCTVSGASVNNYYWTWVRQPPGKGLEWIGNVYDSGDTNYNPSLSSRLSLSMDTSKNQFSLRLSSVTAADTATYYCARYHRHFIRGPLSFDYWGRGTLVTVSS VL: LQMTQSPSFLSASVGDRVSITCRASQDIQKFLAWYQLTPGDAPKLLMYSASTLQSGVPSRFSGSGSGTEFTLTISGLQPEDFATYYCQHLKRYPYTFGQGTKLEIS | 0.00022 |

Turning to the following binder.
Data request: Consider the binder shown here: Fab m18 K31A (LCDR1) (Fab, V domains shown) VH: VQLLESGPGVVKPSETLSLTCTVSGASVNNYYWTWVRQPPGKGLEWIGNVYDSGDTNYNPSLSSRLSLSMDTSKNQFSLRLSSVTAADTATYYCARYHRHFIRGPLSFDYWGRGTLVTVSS VL: LQMTQSPSFLSASVGDRVSITCRASQDIQAFLAWYQLTPGDAPKLLMYSASTLQSGVPSRFSGSGSGTEFTLTISGLQPEDFATYYCQHLKRYPYTFGQGTKLEIS What is its recorded koff?
Data returned: 0.00031
